meta.source: the supplement of paper PMC10065799

Can you tell me phosphorylation enrichment for the items I'm about to list?
Tested on: c-Abl (mouse)
Test: phosphorylation enrichment, bacterial display (enrichment ratio); higher = better substrate or ligand; peptides without Tyr show the background
One number for each entry.

Worked examples follow.
macromolecule sequence	tgt	phosphorylation enrichment
EKLIQYCQSKS [AKR1B1_Y199_G204S]	c-Abl (mouse)	0.638
EILTQYEAMAS [GFAP_Y242_R239L]	c-Abl (mouse)	0.713
HNLDYYKMTTN [FGFR3_Y648_K650M]	c-Abl (mouse)	0.591
QSVEPYTKQQL [STAT3_Y640]	c-Abl (mouse)	0.81
EVTQDYGLDPK [FH_Y110_N107T]	c-Abl (mouse)	0.842

List phosphorylation enrichment for every entry below, keeping the order given.
1. MENFIYESMRF [CYP19A1_Y361_YF]
2. NLNGKYNKPRA [ANGPTL3_Y417]

2.71
0.696

====

Biological target: EPHB2 (UniProt P29323)
Sequence (P29323 whole entry, looked up): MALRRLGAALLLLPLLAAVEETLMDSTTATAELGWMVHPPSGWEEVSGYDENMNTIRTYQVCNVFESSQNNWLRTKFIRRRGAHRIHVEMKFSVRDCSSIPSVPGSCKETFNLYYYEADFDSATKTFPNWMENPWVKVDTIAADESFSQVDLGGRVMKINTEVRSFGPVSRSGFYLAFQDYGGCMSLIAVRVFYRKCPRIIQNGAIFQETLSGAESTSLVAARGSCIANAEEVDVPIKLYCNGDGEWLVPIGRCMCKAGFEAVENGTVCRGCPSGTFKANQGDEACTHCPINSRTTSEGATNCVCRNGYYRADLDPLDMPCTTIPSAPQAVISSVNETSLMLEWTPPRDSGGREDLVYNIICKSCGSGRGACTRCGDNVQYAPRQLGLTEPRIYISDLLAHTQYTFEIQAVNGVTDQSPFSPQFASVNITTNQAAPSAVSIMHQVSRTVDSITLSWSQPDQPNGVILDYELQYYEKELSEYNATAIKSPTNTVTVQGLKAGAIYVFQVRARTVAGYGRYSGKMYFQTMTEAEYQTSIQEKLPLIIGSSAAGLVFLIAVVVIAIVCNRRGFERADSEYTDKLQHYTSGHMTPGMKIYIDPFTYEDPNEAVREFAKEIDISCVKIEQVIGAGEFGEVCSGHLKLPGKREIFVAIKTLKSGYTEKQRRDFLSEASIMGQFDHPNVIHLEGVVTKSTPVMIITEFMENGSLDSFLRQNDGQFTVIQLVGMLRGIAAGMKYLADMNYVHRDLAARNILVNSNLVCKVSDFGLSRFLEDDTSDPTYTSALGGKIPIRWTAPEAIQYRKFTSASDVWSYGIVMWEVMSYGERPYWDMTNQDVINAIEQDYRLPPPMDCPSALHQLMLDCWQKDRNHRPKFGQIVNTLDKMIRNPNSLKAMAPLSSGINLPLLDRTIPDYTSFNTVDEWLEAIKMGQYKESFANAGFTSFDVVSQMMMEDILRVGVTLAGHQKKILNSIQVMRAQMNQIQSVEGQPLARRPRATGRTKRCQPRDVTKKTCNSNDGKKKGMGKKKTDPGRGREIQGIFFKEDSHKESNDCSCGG
Assay: phosphorylation enrichment, bacterial display (enrichment ratio); higher = better substrate or ligand; peptides without Tyr show the background
Each record gets a class by phosphorylation enrichment: low band = under 0.5, middle band = from 0.5 up to 0.7, high band = 0.7 and over

Before answering, review these 9 worked examples.
macromolecule sequence	class name
VATSWYRSPEL [CDKL5_Y177_R175S]	low band
LPPREYVVVPS [CAPN1_Y494_G492R]	high band
DQVEQYNKELE [LMNA_Y259_K260N]	middle band
EGLKVYINGTL [ADGRD1_Y183_V184I]	middle band
DVCKNYAKAKD [ALB_Y343_E345K]	middle band
QRALLYEDTLY [UNC13D_Y56_A59T]	high band
SIVEDYRPPFY [ACVRL1_Y421_G416S]	middle band
SADIAYNFRHG [PAH_Y166_F161S_YF]	low band
LGSNTYPFLLM [SAG_Y120_T125M]	high band

Now look at this one.
Hi, small favor: classify NFDRIYIYHLR [MYOF_Y1137_V1136I] by its phosphorylation enrichment when you get a moment. middle band

====

Test system: c-Src
Assay: phosphorylation enrichment, bacterial display (enrichment ratio); higher = better substrate or ligand; peptides without Tyr show the background
Everything with phosphorylation enrichment lower than 0.5 is false (0); everything else, including exactly 0.5, is true (1).

macromolecule sequence	tgt	class name
DVCKNYAKAKD [ALB_Y343_E345K]	c-Src	false (0)
SLGKGYSVGGC [MC4R_Y35_D37V]	c-Src	false (0)
LDYNEYVRDLN [HPRT1_Y198_F199V]	c-Src	true (1)
STEEQYRIRQV [EFHC1_Y115]	c-Src	false (0)
RVNSAYQEKVS [ACAN_Y100_D102E]	c-Src	false (0)

Could you please find out whether CTTIHYMYMCN [TP53_Y234_N235M] has phosphorylation enrichment that meets 0.5 or exceeds it? false (0)

Could you please find out whether VTDGKYAFKPK [GTF2E2_Y137_I133T] has phosphorylation enrichment that meets 0.5 or exceeds it? false (0)

Could you please find out whether LRFDVYGGENE [STOX1_Y610_E608D_YF] has phosphorylation enrichment that meets 0.5 or exceeds it? true (1)

====

Biological target: EPHB2 (UniProt P29323)
Experiment: phosphorylation enrichment, bacterial display (enrichment ratio); higher = better substrate or ligand; peptides without Tyr show the background
Everything with phosphorylation enrichment lower than 0.7 is -1; everything else, including exactly 0.7, is 1.

Before answering, review these 10 worked examples.
macromolecule sequence	class name
ETAENYLGFTA [HSPA9_Y181_H184Y_YF]	-1
DGTGHYLGNAC [GATA5_Y208_C210G]	-1
PYYTSYPPSPD [GDAP2_Y491]	1
STEEQYRIRQV [EFHC1_Y115]	-1
RLPSGYGLAFR [DLK1_Y262_YF]	-1
EPSVPYRGTVF [GLI3_Y104]	-1
SLIERYEPSET [PLCD1_Y258]	-1
RKKEEYKMALF [F8_Y1990_YF]	1
LRWREYQRQDY [PRKRIP1_Y90_R87W]	1
AGADGYGYLAP [FOXL2_Y186]	-1

Could you please find out whether LLREWYMIISR [HUWE1_Y4066] has phosphorylation enrichment that meets 0.7 or exceeds it? 1

Could you please find out whether LHSEAYLKYNE [PBRM1_Y1610_I1614N] has phosphorylation enrichment that meets 0.7 or exceeds it? -1

Could you please find out whether KSVITYSPTTG [ITGB3BP_Y32] has phosphorylation enrichment that meets 0.7 or exceeds it? -1

Could you please find out whether LALTVYADCLA [ABCA4_Y2063_G2059A] has phosphorylation enrichment that meets 0.7 or exceeds it? 1

====

Test system: c-Abl (mouse)
Test: phosphorylation enrichment, bacterial display (enrichment ratio); higher = better substrate or ligand; peptides without Tyr show the background
Can you tell me phosphorylation enrichment for the items I'm about to list?
Answers are plain numbers.

Worked examples follow.
macromolecule sequence	phosphorylation enrichment
QELRRYLKSSV [MICA_Y194_G198S]	0.349
YQLPYYNTVPS [BMPR1A_Y458_M460T]	2.34
TFYQMYDKGLV [IARS2_Y231]	0.91

List phosphorylation enrichment for every entry below, keeping the order given.
1. RFVTRYIFNRE [HLA-DQB1_Y62_YF]
2. KILGRYFETGS [PAX2_Y72_YF]

0.528
0.563

List phosphorylation enrichment for every entry below, keeping the order given.
1. VDGSLYKTHPQ [HK1_Y417]
2. FMLFQYLKQIE [RPAP3_Y569_D564Y_YF]
3. IYLADYRIMEG [ALOX12B_Y318]
4. FSAPNCCYRCG [PPP2CA_Y265_Y265C]
5. EIRTQYEVMAS [GFAP_Y242_A244V]
6. KVPRHYDDPGK [FOXG1_Y246]
7. GPIEVYLCPEE [E2F3_Y349]

0.425
1.07
0.978
0.833
0.615
1.01
0.724

List phosphorylation enrichment for every entry below, keeping the order given.
1. SCTFTCLLGDR [ETHE1_Y38_Y38C]
2. GELQGYDIMEP [MSH2_Y863_S860L]

1. 0.737
2. 0.658

====

Tested on: c-Abl (mouse)
Assay: phosphorylation enrichment, bacterial display (enrichment ratio); higher = better substrate or ligand; peptides without Tyr show the background
Everything with phosphorylation enrichment lower than 0.9 is condition not met; everything else, including exactly 0.9, is condition met.

Before answering, review these 3 worked examples.
macromolecule sequence	class name
VQSASYLNDCL [MCM3AP_Y864_A867D]	condition not met
NRLTDYFELLL [BBS10_Y536_P539L_YF]	condition not met
WRVISYHVVVW [ATP13A2_Y50_G49S]	condition met

Could you please find out whether LTQRTYMSENA [GPAA1_Y49] has phosphorylation enrichment that meets 0.9 or exceeds it? condition not met

Could you please find out whether GGQEDYDRLRP [RAC3_Y64_A59G] has phosphorylation enrichment that meets 0.9 or exceeds it? condition not met

Could you please find out whether ALKKPYSVLFK [RPF2_Y59_G60S_YF] has phosphorylation enrichment that meets 0.9 or exceeds it? condition not met

Could you please find out whether PINEPYGDDMD [JUP_Y693] has phosphorylation enrichment that meets 0.9 or exceeds it? condition met

Could you please find out whether DNEALYDTCFR [TUBB2B_Y208_I210T] has phosphorylation enrichment that meets 0.9 or exceeds it? condition met

Could you please find out whether SLIDGYFRLTE [JAK2_Y372_A377E_YF] has phosphorylation enrichment that meets 0.9 or exceeds it? condition not met

====

Molecular target: Grb2 SH2 (UniProt P62993)
Sequence (P62993 whole entry, looked up): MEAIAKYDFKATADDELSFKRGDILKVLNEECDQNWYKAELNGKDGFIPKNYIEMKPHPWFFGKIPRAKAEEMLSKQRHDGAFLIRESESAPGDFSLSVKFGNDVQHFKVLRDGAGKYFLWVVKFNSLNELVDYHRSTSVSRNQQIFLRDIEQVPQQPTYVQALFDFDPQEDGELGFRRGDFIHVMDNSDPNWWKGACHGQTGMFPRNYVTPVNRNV
Experiment: SH2 binding enrichment of the phosphorylated peptide, bacterial display (enrichment ratio); higher = better substrate or ligand; peptides without Tyr show the background
Can you tell me SH2 binding enrichment for the items I'm about to list?
Numbers only.

Worked examples follow.
macromolecule sequence	tgt	measure name	data value
PNATLYKMTSI [SERPINA7_Y40_S43T]	Grb2 SH2 (UniProt P62993)	SH2 binding enrichment	0.768
SDVNKYSTAFG [GJB3_Y16_G12D]	Grb2 SH2 (UniProt P62993)	SH2 binding enrichment	0.777

List SH2 binding enrichment for every entry below, keeping the order given.
1. SWKRRYFLLRA [APBB1IP_Y331]
2. RSFLSYFTSHV [NEFL_Y442_P440L_YF]
3. RLFARYFQGDL [PDK3_Y337_YF]
4. DGTGHYLGNAC [GATA5_Y208_C210G]
5. LGSNGCKKLLK [SEPSECS_Y334_Y334C]
6. IKIMGSSIRTI [IDS_Y490_Y490S]
7. RKVLVYDKLNV [ROR2_Y624_N620K]

1. 0.639
2. 0.893
3. 0.713
4. 0.966
5. 1.02
6. 0.836
7. 0.906

List SH2 binding enrichment for every entry below, keeping the order given.
1. SESSYYKSLNL [NGEF_Y289_A286S]
2. YGAHNYHPLPV [OAT_Y55]
3. DESEDYRDTVV [CNNM3_Y456]
4. LAAAGYDVEKN [H1-3_Y72]
5. IGGHAYGDQFR [IDH1_Y135_R132G_YF]
6. KLNNEYLELNY [MME_Y497]
7. GPRSLYNGLVA [UCP2_Y79]

[0.767, 0.866, 0.901, 0.723, 0.826, 0.931, 0.776]

List SH2 binding enrichment for every entry below, keeping the order given.
1. STGSRYQPLAS [NCAPD2_Y1325]
2. FQRLQYIKQLG [SAMHD1_Y146_R145Q]
3. FALAEYTEVKT [ALDH1A3_Y497_YF]
4. DLAGRYFALKS [CKB_Y173_YF]
5. KVIDMYLMGCF [GABRB2_Y308_A304V]
6. EPSVPYRGMVF [GLI3_Y104_T107M]
7. EAEPYYRSLRD [NPHS1_Y1139]
8. RELGEYPLAEY [ALDH1A3_Y492_A493P]

[0.826, 0.867, 0.861, 1.38, 0.795, 0.804, 0.765, 0.795]

List SH2 binding enrichment for every entry below, keeping the order given.
1. SVVVPYERPEV [TP53_Y220_P222R]
2. KRGVSYILKLA [SERPINB1_Y84_A82V]
3. SRDTCYLVLAV [AMH_Y195_R194C]

1: 0.889; 2: 1.28; 3: 0.752

List SH2 binding enrichment for every entry below, keeping the order given.
1. WRPFGYPCRRR [BCS1L_Y181_R183C]
2. VATSWYRSPEL [CDKL5_Y177_R175S]

1. 0.746
2. 0.827
